measuredTarget: T1, cynomolgus CTGF (cynomolgus, UniProt I7G525 27-349)
T1 construct: also called cyCTGF
T1 sequence: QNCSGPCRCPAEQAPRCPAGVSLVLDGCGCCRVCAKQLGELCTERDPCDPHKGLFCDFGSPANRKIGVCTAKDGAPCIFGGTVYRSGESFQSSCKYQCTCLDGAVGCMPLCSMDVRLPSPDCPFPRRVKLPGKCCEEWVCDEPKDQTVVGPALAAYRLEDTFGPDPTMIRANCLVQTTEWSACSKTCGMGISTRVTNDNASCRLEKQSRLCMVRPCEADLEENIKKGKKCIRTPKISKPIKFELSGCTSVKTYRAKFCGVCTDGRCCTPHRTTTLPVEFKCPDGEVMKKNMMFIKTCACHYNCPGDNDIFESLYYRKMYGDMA
assayMethodText: SPR (Biacore)
pKd: recorded values
In plain terms, pKd is the concentration in mol/L turned into minus its base-10 logarithm.

Ask: So what's the measured pKd for this one? lipocalin mutein of SEQ ID NO: 34 (designed binder, also called hNGAL mutein) QDSTSDLIPAPPLSKVPLQQNFQDNQFQGKWYVVGWAGNVILREDKQPFKMSATIYELKEDKSYDVTEVVFEQKKCHYIIKTFVPGSQPGEFTLGDIKSPPGETSTLVRVVSTNYNQHAMVFFKKVSQNREFFWITLYGRTKELTSELKENFIRFSKSLGLPENHIVFPVPIDQCIDG
Result: 8.77

Ask: So what's the measured pKd for this one? lipocalin mutein of SEQ ID NO: 15 (designed binder, also called hNGAL mutein; not shown: C-terminal His-tag) QDSTSDLIPAPPLSKVPLQQNFQDNQFQGKWYVVGLAGNAILREDKQPAKMFATIYELKEDKSYDVTSVRFEAKSCKYTIKTFVPGSQPGEFTAGYIKSAPGQTSTLVRVVSTNYNQHAMVFFKHVTQNREIFVITLYGRTKELTSELKENFIRFSKSLGLPENHIVFPVPIDQCIDG
Result: 9.15

Ask: So what's the measured pKd for this one? lipocalin mutein of SEQ ID NO: 24 (designed binder, also called hNGAL mutein) QDSTSDLIPAPPLSKVPLQQNFQDNQFQGKWYVVGVAGNAILRTDKQPAKMFATIYELKEDKSYDVTSVRFEAKSCKYTIKTFVPGSQPGEFTAGNIKSAPGQTSTLVRVVSTNYNQHAMVFFKHVSQNREIFVITLYGRTKELTSELKENFIRFSKSLGLPENHIVFPVPIDQCIDG
Result: 9.87

Ask: So what's the measured pKd for this one? lipocalin mutein of SEQ ID NO: 31 (designed binder, also called hNGAL mutein; not shown: C-terminal His-tag) QDSTSDLIPAPPLSKVPLQQNFQDNQFQGKWYVVGWAGNVKLREDKQPQKMSATIYELKEDKSYDVTEVVFEQKKCHYIIKTFVPGSQPGEFTAGDIKSPPGYTSSLVRVVSTNYNQHAMVFFKKVSQNREFFWITLYGRTKELTSELKENFIRFSKSLGLPENHIVFPVPIDQCIDG
Result: 9.34

Ask: So what's the measured pKd for this one? lipocalin mutein of SEQ ID NO: 36 (designed binder, also called hNGAL mutein) QDSTSDLIPAPPLSKVPLQQNFQDNQFQGKWYVVGWAGNVKLREDKQPAKMSATIYELKEDKSYDVTEVVFEQKKCHYIIKTFVPGSQPGEFTAGDIKSPPGYTSSLVRVVSTNYNQHAMVFFKKVGQNREFFWITLYGRTKELTSELKENFIRFSKSLGLPENHIVFPVPIDQCIDG
Result: 9.16
